test: Cytotoxicity against human A549 cells assessed as reduction in cell viability at 13 uM by SRB assay relative to control; format: toxicity, cell-based; details: read-out: GI
valueKind: inhibition at 13 µM (%)
Write it as a number; the unit % goes unstated.

[
  {
    "querySmiles": "COc1ccc([C@@H]2SS[C@@]34C[C@]5(O)[C@H](OC(=O)/C=C/C=C/c6c(C)ccc7c6[C@H](C)C[C@H](C)C7)C=C[C@@H](O)[C@@H]5ON3C(=O)[C@@H]2N(C)C4=O)c(O)c1OC",
    "valueKind": "inhibition at 13 µM",
    "unitLabel": "%",
    "reportedMeasurement": 90.7
  }
]

Attention now turns to another entry.
Q: Query: inhibition at 13 µM; subject: "COc1ccc([C@@H]2SS[C@@]34C[C@]5(O)[C@H](OC(=O)/C=C/C=C/[C@@H]6[C@H]7[C@H](C)C[C@H](C)C[C@@H]7C=C[C@@H]6C)C=C[C@@H](O)[C@@H]5ON3C(=O)[C@@H]2N(C)C4=O)c(O)c1OC"
Result: 51.7

Data provenance is ChEMBL document CHEMBL5120819.
